- testTarget: Aspartyl aminopeptidase (Homo sapiens) (UniProt Q9ULA0)
- testName: human M18AAP aspartyl aminopeptidase inhibitors, dose response, counter-screen for PfM18AAP inhibitor project, biochemical, QFRET fluorogenic substrate, set 2 (AID 602221)
- experimentalConditions: recombinant hM18AAP, H-Glu-NHMec fluorogenic cleavage
propertyLabel: IC50

# annotated cases, reported IC50 shown
>  <smilesData>
Oc1ccc(CCNc2c3ccccc3nc3ccccc23)cc1O

>  <IC50>
0.95 µM

$$$$
>  <smilesData>
CN1CCN(c2nc(-c3ccc(O)c(O)c3)cs2)CC1

>  <IC50>
3.7 µM

$$$$
>  <smilesData>
Oc1ccc(-c2csc(Nc3ncccn3)n2)cc1O

>  <IC50>
2.25 µM

$$$$

Kindly give each listed record's IC50.
1. CCc1ccc(NC(=O)Cc2nc(-c3ccc(O)c(O)c3)cs2)cc1
2. Oc1ccc(-c2csc(NC3CCCC3)n2)cc1O
3. Oc1ccc(CCNc2ccnc3ccccc23)cc1O
4. CN1CCN(CCc2ccc(O)c(O)c2)CC1
5. CN1CCN(CCCc2ccc(O)c(O)c2)CC1

["6.04 µM", "4.78 µM", "7.26 µM", "29.3 µM", "6.49 µM"]
